Biological target: hOX2R (Homo sapiens)
Construct: expressed in transfected cells; host or cells: CHO cells (G418 selection)
Sequence (O43614 whole entry): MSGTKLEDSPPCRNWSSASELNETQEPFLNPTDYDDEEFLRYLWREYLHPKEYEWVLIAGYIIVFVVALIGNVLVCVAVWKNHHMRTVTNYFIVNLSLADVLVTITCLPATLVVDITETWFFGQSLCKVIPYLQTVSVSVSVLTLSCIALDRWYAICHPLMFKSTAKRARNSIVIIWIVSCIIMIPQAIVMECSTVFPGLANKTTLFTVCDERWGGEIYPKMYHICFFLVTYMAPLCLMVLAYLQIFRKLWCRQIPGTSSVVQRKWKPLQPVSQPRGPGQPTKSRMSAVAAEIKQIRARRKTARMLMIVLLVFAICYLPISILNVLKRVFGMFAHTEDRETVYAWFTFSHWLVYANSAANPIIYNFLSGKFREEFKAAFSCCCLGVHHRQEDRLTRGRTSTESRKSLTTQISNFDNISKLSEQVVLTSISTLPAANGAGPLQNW
Test: hOX2R IPone assay (orexin receptor agonism)
Assay type: cell-based
Details: maximal activation, IPone readout
Record form. Attribute: hOX2R_Ipone max %act. Fill in for each entry.
Only the number, expressed in %, is required.

# input Entry CCN1C(=O)NCCCNCCOc2nc(cn3ccnc23)-c2cccc(c2)[C@H]1C [Example 11] , system hOX2R (Homo sapiens): what hOX2R_Ipone max %act was measured?
# output 75.54

# input Which measured hOX2R_Ipone max %act belongs to CCN1C(=O)NC(C(C)(C)C)CCCCCOc2nc(cn3ccnc23)-c2cc(ncc2OC)[C@H]1C (single isomer, unassigned) [Example 63B] , tested on hOX2R (Homo sapiens)?
# output 103.3

# input Lab note: need hOX2R_Ipone max %act for CCN1C(=O)N[C@@H](CCC(F)(F)F)CCCCCOc2nc(cn3ccnc23)-c2cc(nnc2OC)[C@H]1C [Example 116] on hOX2R (Homo sapiens), anyone have it?
# output 99.7

# input # query: hOX2R_Ipone max %act | item CCN1C(=O)N[C@@H](CCC(F)(F)F)CCCCCOc2nc(cn3ccnc23)-c2cc(ccn2)[C@@H]1C [Example 113A] | system: hOX2R (Homo sapiens)
# output 98.1

###

Provide the reported hOX2R_Ipone max %act of each item.
Molecular target: hOX2R (Homo sapiens)
Construct: expressed in transfected cells; host or cells: CHO cells (G418 selection)
Assay: hOX2R IPone assay (orexin receptor agonism)
Format: cell-based
Details: maximal activation, IPone readout
# output: bare number, implied unit %

# input Entry CCN1C(=O)NC(CCC(F)(F)F)CCCCCOc2cc(n3nccc3c2)-c2ccnc(c2)C1C (centres unmarked) has what hOX2R_Ipone max %act?
# output 100.3

# input Please give the measured hOX2R_Ipone max %act for this compound: CCN1C(=O)NC(CCC#N)CCCCCOc2nc(cn3ccnc23)-c2cc(ncc2OC)[C@H]1C (some centres unmarked)
# output 101.6

# input Form field: reported hOX2R_Ipone max %act of CCN1C(=O)N[C@@H](CCC(C)(F)F)CCOCCOc2nc(cc3c(C)cnn23)-c2cc(ncc2OC)[C@H]1C
# output 107.9

# input Look up hOX2R_Ipone max %act: CCN1C(=O)NC(CC2(C(F)F)CC2)CCCCCOc2nc(cn3ccnc23)-c2cc(ncc2OC)[C@H]1C (single isomer, unassigned) [Example 70A]
# output 99.1

# input What does the record list as hOX2R_Ipone max %act for CCN1C(=O)N[C@@H](CF)CCCCCOc2nc(cn3ccnc23)-c2cc(ncc2OC)[C@H]1C ?
# output 96.84

# input Field request: hOX2R_Ipone max %act | item: CCN1C(=O)NC(CC2CCOC2)CCCCCOc2nc(cn3ccnc23)-c2cc(ncc2OC)[C@H]1C (single isomer, unassigned) [Example 67B]
# output 101

# input State the recorded hOX2R_Ipone max %act for this entry: CCN1C(=O)N[C@@H](CCC(C)(F)F)CCCCCOc2nc(cn3ccnc23)-c2ccnc(c2)[C@H]1C
# output 99.1

# input Using the record for CCOCC1CCCCCOc2nc(cn3ccnc23)-c2cc(ncc2OC)[C@@H](C)N(CC)C(=O)N1 (single isomer, unassigned) [Example 62A] , report its hOX2R_Ipone max %act.
# output 99.9

# input Given CCN1C(=O)N[C@@H](C)C(F)(F)CCCCOc2nc(cn3ccnc23)-c2cc(ncc2OC)[C@H]1C , state its recorded hOX2R_Ipone max %act.
# output 99.01

# input Look at this compound and give its reported hOX2R_Ipone max %act. CCN1C(=O)NC2CC2CCCCOc2cn3ccnc3c(n2)-c2cc(ncc2OC)C1C (centres unmarked)
# output 103.8

# input Please report the recorded hOX2R_Ipone max %act for CCN1C(=O)NC(COC)CCCCCOc2nc(cn3ccnc23)-c2cc(ncc2F)[C@H]1C (some centres unmarked) .
# output 100.6

# input Query: hOX2R_Ipone max %act; subject: CCN1C(=O)NC(C2CCOCC2)CCCCCOc2nc(cn3ccnc23)-c2cc(ncc2OC)[C@H]1C (single isomer, unassigned) [Example 68A]
# output 100.1

# input Would you kindly share the measured hOX2R_Ipone max %act for CCN1C(=O)NC(CCC(F)(F)F)CCOCCOc2nc(cn3ccnc23)-c2cc(ncc2OC)[C@H]1C (single isomer, unassigned) [Example 6B] ?
# output 101.5

# input Quick check: hOX2R_Ipone max %act of CCN1Cc2cccc(c2)-c2cn3ccnc3c(n2)OCCCC[C@H](CCC(F)(F)F)NC1=O ?
# output 97.6
